TEST METHOD NOTES: solvent given as SMILES
SETUP CONDITIONS: in ClC(Cl)Cl
In this section we review reported solvation free energy, 298 K values for a set of compounds.
Report the value in kcal/mol with no unit label.

input: Fill in: solvation free energy, 298 K of "C1CCCCC1" is ___
output: -4.33

input: What do you have for "O=O" ?
output: 0.97

input: Ok, now C=C(C)C1CCC2(CO)CCC3(C)C(CCC4C5(C)CCC(O)C(C)(C)C5CCC43C)C12 (centres undefined)
output: -28.4

input: Follow-up item: "O=C=O"
output: -0.61

---

Listed here are molecules together with their documented solvation free energy, 298 K.
TEST METHOD NOTES: solvent given as SMILES
SETUP CONDITIONS: in CC(C)CO
// units = kJ/mol; emit number, no label

Solved entries (count: 8):
[
  {
    "MOLECULE": "FS(F)(F)(F)(F)F",
    "RECORDED MEASUREMENT": 0.418
  },
  {
    "MOLECULE": "c1ccc2c(c1)Nc1ccccc1S2",
    "RECORDED MEASUREMENT": -52.9
  },
  {
    "MOLECULE": "CC(C)Cc1ccc(C(C)C(=O)O)cc1 (stereo unspecified)",
    "RECORDED MEASUREMENT": -55.4
  },
  {
    "MOLECULE": "O=c1c2ccccc2sc2ccccc12",
    "RECORDED MEASUREMENT": -49.1
  },
  {
    "MOLECULE": "O=C(O)c1cc([N+](=O)[O-])cc([N+](=O)[O-])c1",
    "RECORDED MEASUREMENT": -57.4
  },
  {
    "MOLECULE": "Clc1ccc(Br)cc1",
    "RECORDED MEASUREMENT": -27.2
  },
  {
    "MOLECULE": "Cc1ccc(C)cc1",
    "RECORDED MEASUREMENT": -20.7
  },
  {
    "MOLECULE": "COC(=O)c1ccc(O)cc1",
    "RECORDED MEASUREMENT": -50
  }
]

input: Quick check: solvation free energy, 298 K of "c1cc2c3c(cccc3c1)CC2" ?
output: -35.1

input: Now try "O=C(Oc1ccccc1)c1ccccc1O" .
output: -51.1

input: Here is the next molecule: "CC(=O)Nc1ccc(O)cc1"
output: -65.2

input: Same again, this time with "O=[N+]([O-])c1cc(Cl)ccc1Cl"
output: -33.5

input: Similarly, "CCCC#N" ?
output: -19.1

input: How about "CCCCCO" ?
output: -28.7

input: Quick one: "C=CCC"
output: -8.28

input: Another molecule to look at: "C=C"
output: -1.92

input: Okay, and "CCCO" ?
output: -22.8

input: Now consider "Cc1ccccc1" .
output: -18.3

input: Would you kindly repeat that for "O=O" ?
output: 3.72

input: What do you get for "O=C1c2ccccc2C(=O)c2c(Cl)cccc21" ?
output: -52.6

input: Likewise for "C1CCCCC1" ?
output: -16.4

input: Would you mind doing "O=C(O)c1ccc([N+](=O)[O-])cc1" as well?
output: -49.6

input: Further, for "c1ccccc1" ?
output: -15.5

input: And the next one, "Clc1ccccc1" ?
output: -21.3

input: Ok, now "O=C(C(=O)c1ccccc1)c1ccccc1"
output: -45.3

input: Try this molecule too: "c1ccc2c(c1)Cc1ccccc1O2"
output: -38.7

input: Same lookup for "O=C(O)c1cccc(Cl)c1" , please.
output: -43.8

input: Moving on to "CC(=O)Oc1ccccc1C(=O)O"
output: -55.4

input: Repeat for the following molecule: "CN(C)C(=O)Nc1ccc(Cl)cc1"
output: -55

input: For "[2H][2H]" then?
output: 6.4

input: Now consider "O=[N+]([O-])c1ccc(CCl)cc1" .
output: -34.5
